Known GI50 of a selection of compounds
# System: MDA-MB-231
# METHOD: Growth inhibition of human MDA-MB-231 cells incubated for 48 hrs by sulforhodamine B assay
# Type: functional
Please provide the amount together with its unit, number first.

Solved cases below.
MOLECULAR STRING: COc1cc2nc(-c3ccc(Cl)cc3)cc(OCCCN3CCCC3)c2cc1OC
PROPERTY MEASURED: GI50
ENDPOINT RESULT: 907 nM

MOLECULAR STRING: COc1cc2nc(-c3ccc(C(F)(F)F)cc3)cc(OCCCN3CCC(O)CC3)c2cc1OC
PROPERTY MEASURED: GI50
ENDPOINT RESULT: 919 nM

Next up:
Exercise: For the compound shown here, "COc1cc2nc(-c3ccc(Cl)cc3)cc(OCCCN3CCC(O)CC3)c2cc1OC" , give the reported GI50.
Solution: 665 nM
